Origin of values: the supplement of paper PMC10567573

Assay text: protein stability index of a GFP-peptide fusion (GPS, HEK-293T) (PSI 1-6); higher = more stable;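 also: 24-mer peptide tiles fused after GFP, lentivirally expressed, FACS-sorted into six equal bins by GFP/DsRed ratio, decoded by Illumina sequencing, PSI is the read-weighted mean bin number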
Settings: treatment: MLN4924 1 uM, 8 h; c terminus: a fixed tail appended
Quantity kind: protein stability index

| Sequence record | Quantity kind | Recorded measurement |
| --- | --- | --- |
| GKNNEFSRLVAGEYLSFFDFSGLT [PSD2] | protein stability index | 2.13 |
| VRTLSEPPDKGEEQVNFCESSNDF [ZBTB22] | protein stability index | 5.26 |
| LHPLLSGRLGRWLRSTRFSGSLDR [PCDHGC5] | protein stability index | 2.45 |
| REVAKELGLPYYETSVFDQFGIKD [RHOBTB1] | protein stability index | 3.27 |
| HGRHIDCPATWGPSVEQAADSLDF [FOXJ1] | protein stability index | 4.58 |
| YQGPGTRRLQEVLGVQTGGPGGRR [DYRK1B] | protein stability index | 3.94 |
| RSRYDGHRIWMYNCHIGGSFSEET [LOXL2] | protein stability index | 2.72 |
| YRQSSFPHCSDLMPSGSEEKILRE [KCNA4] | protein stability index | 4.26 |
| HGIELHSDVVEYAKEKLESFIKNS [PCMTD1] | protein stability index | 4.04 |
| VDHHGTAQLQALRQKEVDFCISLL [INTS3] | protein stability index | 2.35 |
| EEKERIGQFVFARDAKAAMAGRLM [AASDHPPT] | protein stability index | 3.43 |
| QELLDTVLVNLVPAHKNLNKQAYD [PDS5B] | protein stability index | 3.02 |
| QSQSLRDRARRFEEALRKNTEEQL [MTUS2] | protein stability index | 5.06 |
| EEPSKYGVVVCEADTGRIHRFVEK [GMPPB] | protein stability index | 3.99 |
| ANGGAICAVTFFTILLSYGVILHS [OR4A15] | protein stability index | 2.84 |
| VGGEAVEVEEVENVQTEFPGEDEN [TRIM55] | protein stability index | 5.61 |
| SGGSYRDSYESYGNSRSAPPTRGP [RBMX] | protein stability index | 3.83 |
| TSETSHSPLYADPYTPPATSHRRV [PLEKHN1] | protein stability index | 4.34 |
| LRAGSSEFDSEHNLTSNEGHSLKN [RASAL3] | protein stability index | 4.87 |
| KNLFGPPLESAFDHEDFTGSSSLG [FCHO1] | protein stability index | 4.37 |
| KRDDYLEWPEYFMAVAFLSAQRSK [DCTD] | protein stability index | 2.12 |
| RPSTYYELLGVHPGASTEEVKRAF [DNAJC4] | protein stability index | 3.86 |
| FTDPFFIVETLCIIWFSFELVVRF [KCNA1] | protein stability index | 3.18 |
| MKLFDSICNNKWFTDTSIILFLNK [GNAI1] | protein stability index | 2.58 |
| RLAQPSSPEVLTPQLSPGSGTPQA [RTN2] | protein stability index | 4.96 |
| QCMQPNNIMGIENICELAARMLFS [NR2F2] | protein stability index | 2.49 |
| HYYPKLMSIMGNVLRFLPAFVRMK [GFOD1] | protein stability index | 2.24 |
| TTSDIPHMLNQVESKVKDILSKVQ [FAM98B] | protein stability index | 2.32 |
| GPASRMDPESERALQAPHSPSKTD [PBXIP1] | protein stability index | 5.34 |
| RYDAEVVAIAQKFAALRASLVAPL [MYORG] | protein stability index | 2.01 |
| IHFDSYITCVSGAIVDLISRQYDK [FBXO33] | protein stability index | 2.81 |
| TVETCRALGKLLPRETLCTELVLS [LRRC45] | protein stability index | 2.55 |
| ASGPINFTMFLNLFGEKLSGTDAE [MYL5] | protein stability index | 2.6 |
| DSTGYMEVSLDSLDLRVKGILSSQ [EHMT1] | protein stability index | 3.17 |
| TTVPDGPTQLRALNLTEGFAVLHW [TNXB] | protein stability index | 2.05 |
| NDRGDHYHWKDLNRGINITIYGKT [EFHC1] | protein stability index | 2.39 |
| LHRTEGELQKIVQAGDKDLDGQLD [SLC25A25] | protein stability index | 5.55 |
| QKPLCASDGRTFLSRCEFQRAKCK [SMOC2] | protein stability index | 3.6 |
| VLGVADGVGGWRDYGVDPSQFSGT [PPTC7] | protein stability index | 4 |
| LPVYLKKDPAYFYGYVYFRQVRDK [DENND6A] | protein stability index | 2.53 |
| SQVCRVAYEIMQTLHPDASANFHS [FUT8] | protein stability index | 2.27 |
| PERIYQGSSGSYFVKDPQGRIIAV [PI4K2A] | protein stability index | 2.74 |
| GGLLDEAMLDEISLMDLAIEEGFN [NFE2L1] | protein stability index | 3.86 |
| VTGYGINGTGDSNDFWRIEVVNRK [POMT2] | protein stability index | 3.39 |
| YEHYERVENGDFNWIVPGKFLAFS [CDC14A] | protein stability index | 2.26 |
| NSTLDPHGHLILHSMHKYQPRIHL [TBX6] | protein stability index | 2.34 |
| GLEQFINKVAGHPLAQNERCLHMF [SNX3] | protein stability index | 2.21 |
| FMSPCDKFRAKGRKPCKLMLQVVK [MCOLN1] | protein stability index | 2.38 |

---

Assay text: protein stability index of a GFP-peptide fusion (GPS, HEK-293T) (PSI 1-6); higher = more stable
Settings: treatment: DMSO; c terminus: a fixed tail appended

| Sequence record | protein stability index |
| --- | --- |
| VLENLEDSCVLTGPDDSLWDKHAC [TRIB3] | 3.69 |
| ASRQKTSLGIELHCNVSNILHMNG [ZNF396] | 1.97 |
| LRADNAFMLLTQARLFDEPQLASL [BTBD1] | 2.46 |
| LPLALYTATFAVHFMVLSKSGPGD [POMT2] | 3.34 |

---

Assay text: protein stability index of a GFP-peptide fusion (GPS, HEK-293T) (PSI 1-6); higher = more stable
Settings: treatment: DMSO; c terminus: a fixed tail appended

| Sequence record | protein stability index |
| --- | --- |
| GVSYTFDNEDSELNGDYGENIYPY [MIA2] | 3.93 |
| IRSPRPASVATWAIFVHRVGQPSI [CTBP1-DT] | 2.46 |
| VMSGVKCSGTELSLAHCRHDGEDV [LOXL2] | 4.95 |
| KMPVLKAEASHYNSDLNNLLFCCQ [RHOBTB3] | 2.27 |
| QYFVVDPMAEYNMPQYILREFKVT [PTPRD] | 2.48 |
| KVLLSGATFLVTFGNSEKPETMTC [ZFYVE21] | 2.43 |
| LPAQPNRKPGMSSTARRSRAASSQ [CHMP4C] | 4.88 |
| MTPDIHELVENIKSVLKSDEEHME [FAM189A2] | 4.72 |
| PNQAMVVAAAGDACPPQHVPPKDS [TBC1D10A] | 5.5 |
| KENIEKDEDDVDQELANIDPTWIE [SRPK2] | 5.56 |
| DITEGDRKPDYTAYVAMIPQCIKE [ATF4] | 3.28 |
| DPTGASIALFTARLHHPHKSVQHV [PTPN9] | 2.37 |
| EDLEWERYRGRGSEEYRAPRPQSE [CHGB] | 5.19 |
| LPPPSAPSLQPSRKLSPTEPKNYG [SCAMP3] | 4.79 |
| LQNQNFPYPVLFHNIFLLGGSSTS [NLN] | 2.15 |
| NLAKEQLSRENIQSSLLETLYRNR [PPEF2] | 3.05 |
| DELAHRCSSFMAPPVTDLGELRRR [CPOX] | 3.92 |
| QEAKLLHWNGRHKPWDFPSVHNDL [GLT8D2] | 3.11 |
| REVAKELGLPYYETSVFDQFGIKD [RHOBTB1] | 3.18 |
| GQDTMLKAMFSGRVEVLTDAGGWV [KCTD13] | 2.45 |
| RKLQKEQQRSKDLESRQRSLEQAN [TFE3] | 5.09 |
| TSVLATLVVFAVLGFKANIMNEKC [SLC6A17] | 2.66 |
| STMSLNIITVTLNMEKYNFLGISI [DVL3] | 3.3 |
| KTERINALELLGATFVDKKRDLLG [FEM1C] | 3.23 |
| SQSPSVSQLSVLSLSGVMLTDVSP [PRAME] | 3 |
| YSAYIRRCACAASSDESPGSKCSP [TTC32] | 2.25 |
| RPDGDCASSLNGGNIKGIEGHSPG [ZC2HC1A] | 5.16 |
